System: MCF7 breast
Test: NCI tumour cell line growth inhibition, 48 h
Kindly state TGI for each of the entries shown.
Answers are plain numbers, in µM.

Worked cases, TGI given:
| molecule | study-system | number |
| --- | --- | --- |
| Cc1c2cccc-2c(OCCO)cc2c1[nH]c1ccccc12 | MCF7 breast | 19.4 |
| COC(=O)CCC(=O)c1ccc2c(c1)CC1(C2)Cc2ccc3c(c2C1)CCCC3=O (stereo not given) | MCF7 breast | 69.9 |
| CC[C@@]1(O)C(=O)OCc2c1cc1n(c2=O)Cc2c-1nc1ccccc1c2/C=N/OC(C)(C)C | MCF7 breast | 5.69 |

Q: Please look up its TGI: CC(=O)Nc1sc2c(c1-c1nc3ccccc3s1)CNC2
Result: 7.88

====

Kindly state TGI for each of the entries shown.
Tested on: UACC-62 melanoma
Assay: NCI tumour cell line growth inhibition, 48 h

| molecule | TGI |
| --- | --- |
| C/C(=N\NC(=O)c1ccncc1)c1ccc(O)cc1O | > 100 µM |
| CCc1ccc(Nc2cc(C)nc3nc(C)nn23)cc1 | > 100 µM |
| O=C1NN(c2ccccc2)C(=O)C2C3c4ccccc4C(c4ccccc43)C12 (stereo not given) | > 100 µM |
| CC1OC(OC2CC(O)(C(=O)CO)Cc3c(O)c4c(c(O)c32)C(=O)c2ccccc2C4=O)CC(N)C1O (stereo not given) | 0.109 µM |
| COC(=O)C1CCC(=O)N1C(c1ccc2c(c1)OCO2)c1ccc2c(c1)OCO2 (stereo not given) | > 100 µM |
| COc1ccc(Nc2ncccc2C(=O)NCc2cn(Cc3cccc(Oc4ccccc4)c3)nn2)cc1 | > 100 µM |

Your task in this section: give TGI for each listed record.
1. Cn1c(=O)c2nc(N3CCCCC3)cnc2n(C)c1=O
2. CCc1n[nH]c(=O)n1NC(=O)/C=C\C(=O)O
3. CC(=O)c1ccc(NCN2C(=O)c3ccccc3C2=O)cc1
4. Cc1ccccc1/C=C1\CN(C(=O)OC(C)(C)C)C/C(=C\c2ccccc2C)C1=O
5. CN(C(=O)c1cccs1)C(=S)N1CCN(c2ccccc2)CC1
6. OCSc1nn(CO)c(=S)s1

Result:
> 100 µM
> 100 µM
> 100 µM
4.42 µM
> 100 µM
34.8 µM

====

Kindly state GI50 for each of the entries shown.
Test system: SK-MEL-28 melanoma
Experiment: NCI tumour cell line growth inhibition, 48 h

Worked cases, GI50 given:
| compound | result |
| --- | --- |
| CSc1nc2c(c(=O)[nH]1)C(c1ccc(Cl)cc1)C1=C(N2)/C(=C/c2ccc(Cl)cc2)CNC1 (stereo not drawn) | 2.3 µM |
| Nc1c(C(=O)Nc2ccccc2)sc2nc3c(cc12)CCCC3 | 14.7 µM |
| CC(=O)Nc1sc2c(c1-c1nc3ccccc3s1)CNC2 | 2.94 µM |

Your task in this section: give GI50 for each listed record.
1. S=C(N/N=C(/c1ccccc1)c1ccccn1)Nc1cccc(Cl)c1
2. COc1ccc(CNc2nc(NCc3ccc(OC)cc3)c3n[nH]c(C(C)C)c3n2)cc1
3. O=C(CCl)Nc1ccc2c(c1)C(=O)c1ccc(NC(=O)CCl)cc1C2=O

Result:
2.09 µM
2.13 µM
0.321 µM

Your task in this section: give GI50 for each listed record.
1. NC[C@@](O)(c1ccc(Cl)cc1)c1ccc(-c2cn[nH]c2)cc1
2. Cc1nn(-c2ccc(Br)cc2)c(C)c1CC(=O)c1cc(O)ccc1O
3. COc1cc(OC)cc(-c2cncn2-c2ccc(-c3nc4cc(OC)c(OC)c(OC)c4s3)cc2)c1
4. CC([O-])C(=O)[O-].NCC1CCC1CN.[Pt+4] (stereo not drawn)

Result:
1: 3.97 µM; 2: 12.6 µM; 3: 31.6 µM; 4: > 10 µM

Your task in this section: give GI50 for each listed record.
1. COc1ccc(-c2nocc2-c2cc(OC)c(OC)c(OC)c2)cc1
2. Cc1ccccc1/C=C1\CN(C(=O)OC(C)(C)C)C/C(=C\c2ccccc2C)C1=O
3. COc1cc(C2C(C#N)=C(N)Oc3cc(O)ccc32)cc(OC)c1OC (stereo not drawn)

Result:
["6.9 µM", "2.8 µM", "0.86 µM"]

Data provenance is PubChem BioAssay (NCI).
